# ASSAY_SYSTEM: T1, PD-1 (UniProt Q15116 25-170, limits assumed)
# T1 construct: also called PD-1 protein
# T1 sequence (Q15116 25-170 limits assumed): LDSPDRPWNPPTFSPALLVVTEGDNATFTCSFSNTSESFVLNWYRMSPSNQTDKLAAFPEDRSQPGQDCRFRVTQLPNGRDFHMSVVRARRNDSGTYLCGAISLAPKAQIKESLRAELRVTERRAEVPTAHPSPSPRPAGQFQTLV
# ASSAY_TEXT: SPR; set-up and antigen form not restated
PARAMETER_MEASURED: Kd
Note to self: number, then unit, no commentary.

BINDER	Kd
NB194-P29-z7 (Fc fusion, not shown: IgG4 constant region of vector pCDNA3.4-IgG4) heavy: QVQLVESGGGLVQPGGSLRLSCSASGHSFSIYDMGWFRQAADKERESVAVINFGRGTTYYAESVKGRFTISLDNAKNTVYLQMNSLRAEDTAVYSCGIDRRQYGLGIPPLADHWGQGSQVTVSS	0.15 nM
NB194-P29-z6 (Fc fusion, not shown: IgG4 constant region of vector pCDNA3.4-IgG4) heavy: QVQLVESGGGLVQPGGSLRLSCSASGHSFSIYDMGWFRQAAGKERESVAVINFGRGTTYYAESVKGRFTISRDNAKNTVYLQMNSLRAEDTAVYSCGIDRRQYGLGIPPLADHWGQGSQVTVSS	0.268 nM

Please find the next binder below.
Give Kd for the following binder: NB194-P29-z9 (Fc fusion, not shown: IgG4 constant region of vector pCDNA3.4-IgG4) heavy: QVQLVESGGGLVQPGGSLRLSCSASGFTFSIYDMGWFRQAADKERESVAVINFGRGTTYYAESVKGRFTISRDNAKNTVYLQMNSLRAEDTAVYSCGIDRRQYGLGIPPLADHWGQGSQVTVSS
0.406 nM

Reference for the values: patent EP4269437A1
